# Species on record: Mus musculus
# ASSAY_SUMMARY: Cytotoxicity against Balb/c mouse T cells assessed as decrease in cell viability at 1 uM after 48 hrs by MTT assay
# Assay type: toxicity, cell-based
REPORTED_PROPERTY: Activity

structure_as_smiles=CC(=O)Oc1cc(C)c2c(c1C)C[C@H]([C@@H](C)C(=O)OCc1cn(-c3ccc(CC#N)cc3)nn1)CC2 reported_property=Activity reported_result=Toxic
structure_as_smiles=CC(=O)Oc1cc(C)c2c(c1C)C[C@H]([C@@H](C)C(=O)OCc1cn(-c3ccc(Cl)cc3)nn1)CC2 reported_property=Activity reported_result=Toxic
structure_as_smiles=CC(=O)Oc1cc(C)c2c(c1C)C[C@H]([C@@H](C)C(=O)OCc1cn(-c3ccccc3F)nn1)CC2 reported_property=Activity reported_result=Non-Toxic
structure_as_smiles=CC(=O)Oc1cc(C)c2c(c1C)C[C@H]([C@@H](C)C(=O)O)CC2 reported_property=Activity reported_result=Toxic
structure_as_smiles=CC(=O)Oc1cc(C)c2c(c1C)C[C@H]([C@@H](C)C(=O)OCc1cn(-c3cc(I)ccc3C)nn1)CC2 reported_property=Activity reported_result=Non-Toxic
structure_as_smiles=COc1cc(-n2cc(COC(=O)[C@H](C)[C@@H]3CCc4c(C)cc(OC(C)=O)c(C)c4C3)nn2)cc(OC)c1OC reported_property=Activity reported_result=Toxic
structure_as_smiles=CC(=O)Oc1cc(C)c2c(c1C)[C@@H]1OC(=O)[C@@H](C)[C@@H]1CC2 reported_property=Activity reported_result=Toxic
structure_as_smiles=CC(=O)Oc1cc(C)c2c(c1C)C[C@H]([C@@H](C)C(=O)OCc1cn(-c3ccccc3CO)nn1)CC2 reported_property=Activity reported_result=Toxic
structure_as_smiles=CC(=O)Oc1cc(C)c2c(c1C)C[C@H]([C@@H](C)C(=O)OCc1cn(-c3ccc(O)cc3)nn1)CC2 reported_property=Activity reported_result=Non-Toxic
structure_as_smiles=CC(=O)Oc1cc(C)c2c(c1C)C[C@H]([C@@H](C)C(=O)OCc1cn(-c3ccc(C#N)cc3)nn1)CC2 reported_property=Activity reported_result=Toxic
structure_as_smiles=COc1ccc(-n2cc(COC(=O)[C@H](C)[C@@H]3CCc4c(C)cc(OC(C)=O)c(C)c4C3)nn2)cc1 reported_property=Activity reported_result=Toxic
structure_as_smiles=CC(=O)Oc1cc(C)c2c(c1C)C[C@H]([C@@H](C)C(=O)OCc1cn(-c3ccc(O)cc3C)nn1)CC2 reported_property=Activity reported_result=Non-Toxic
structure_as_smiles=CC(=O)Oc1cc(C)c2c(c1C)C[C@H]([C@@H](C)C(=O)OCc1cn(-c3ccc4c(c3)OCO4)nn1)CC2 reported_property=Activity reported_result=Non-Toxic
structure_as_smiles=CC(=O)Oc1cc(C)c2c(c1C)C[C@H]([C@@H](C)C(=O)OCc1cn(-c3ccc(NC(=O)c4ccccc4)cc3)nn1)CC2 reported_property=Activity reported_result=Non-Toxic
structure_as_smiles=CC(=O)Oc1cc(C)c2c(c1C)C[C@H]([C@@H](C)C(=O)OCc1cn(-c3ccc(C(=O)c4ccccc4)cc3)nn1)CC2 reported_property=Activity reported_result=Non-Toxic
structure_as_smiles=CC(=O)Oc1cc(C)c2c(c1C)C[C@H]([C@@H](C)C(=O)OCc1cn(-c3ccc(CO)cc3)nn1)CC2 reported_property=Activity reported_result=Toxic
structure_as_smiles=CC(=O)Oc1cc(C)c2c(c1C)C[C@H]([C@@H](C)C(=O)OCc1cn(-c3cccc([N+](=O)[O-])c3)nn1)CC2 reported_property=Activity reported_result=Toxic
structure_as_smiles=C#CCOC(=O)[C@H](C)[C@@H]1CCc2c(C)cc(OC(C)=O)c(C)c2C1 reported_property=Activity reported_result=Non-Toxic
structure_as_smiles=CC(=O)Nc1ccc(-n2cc(COC(=O)[C@H](C)[C@@H]3CCc4c(C)cc(OC(C)=O)c(C)c4C3)nn2)cc1 reported_property=Activity reported_result=Toxic
structure_as_smiles=CCCCCn1cc(COC(=O)[C@H](C)[C@@H]2CCc3c(C)cc(OC(C)=O)c(C)c3C2)nn1 reported_property=Activity reported_result=Toxic
structure_as_smiles=COc1ccccc1-n1cc(COC(=O)[C@H](C)[C@@H]2CCc3c(C)cc(OC(C)=O)c(C)c3C2)nn1 reported_property=Activity reported_result=Toxic
structure_as_smiles=CC(=O)Oc1cc(C)c2c(c1C)C[C@H]([C@@H](C)C(=O)OCc1cn(-c3cccc(C#N)c3)nn1)CC2 reported_property=Activity reported_result=Toxic
structure_as_smiles=CC(=O)Oc1cc(C)c2c(c1C)C[C@H]([C@@H](C)C(=O)OCc1cn(-c3ccc(Cl)c(Cl)c3)nn1)CC2 reported_property=Activity reported_result=Non-Toxic
